Data credit: patent US9642851B2

As a worked illustration, we turn to IC50 data collected for FGFR3 (Homo sapiens).
Structures can show the parent of a compound that is named as a salt.
One number for each entry, in nM.

Would you please look over these solved cases?
compound	IC50 [nM]
COC(=O)c1ccc2c(c1)NC(=O)/C2=C(\Nc1ccc2c(c1)CCN2C(=O)CN1CCOCC1)c1ccc(F)cc1 [Compound 9 hydrochloride]	9800
COC(=O)c1ccc2c(c1)NC(=O)/C2=C(\Nc1ccc2c(c1)CCN2C(=O)CN1CCCC1=O)c1ccccc1 [Compound 12 hydrochloride]	1720
COC(=O)c1ccc2c(c1)NC(=O)/C2=C(\Nc1ccc2c(c1)CCN2C(=O)Cn1cncn1)c1ccccc1 [Compound 13 hydrochloride]	540
COC(=O)c1ccc2c(c1)NC(=O)/C2=C(\Nc1ccc2c(c1)CCN2C(=O)CN(C)C)c1ccccc1 [Compound 2 hydrochloride]	280
CCOC(=O)c1ccc2c(c1)NC(=O)/C2=C(\Nc1ccc2c(c1)CCN2C(=O)CN1CCOCC1)c1ccccc1 [Compound 10 hydrochloride]	5300

Next compound, please.
Look up IC50 for this compound: COC(=O)c1ccc2c(c1)NC(=O)/C2=C(\Nc1ccc2c(c1)CCN2C(=O)Cn1cccn1)c1ccccc1 [Compound 14 hydrochloride]
4020
